- Test system: NCI-H64;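 also: growth inhibition of NCI-H64 cells, read out with a cell viability assay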
- test_name: cells
- Format: functional, cell-based
- run_conditions: Homo sapiens
- Description: SANGER: Inhibition of human NCI-H64 cell growth in a cell viability assay.
pIC50: −log10 of the molar value.
Listing of recorded pIC50 by entry.

# value of pIC50, NCI-H64, item "Cc1[nH]c(/C=C2\C(=O)Nc3ccc(S(=O)(=O)Cc4c(Cl)cccc4Cl)cc32)c(C)c1C(=O)N1CCC[C@@H]1CN1CCCC1" = < 5.70

The compound "CCNc1cc(N[C@H]2CC[C@@H](O)CC2)nc(Nc2ccc3c(ccn3Cc3ccccc3)c2)n1" , when measured on NCI-H64, yielded pIC50 of < 5.29

====

Each item that follows carries a reported IC50.
- Test system: MS-1;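 also: growth inhibition of MS-1 cells, read out by cell viability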
- test_name: cells
- Type: functional, cell-based
- run_conditions: Homo sapiens
- Description: SANGER: Inhibition of human MS-1 cell growth in a cell viability assay.

Sample answers from the record:
- CCCS(=O)(=O)Nc1ccc(F)c(C(=O)c2c[nH]c3ncc(Cl)cc23)c1F [PLX-4720]: > 10 µM
- O=c1cc(N2CCOCC2)oc2c(-c3cccc4c3sc3ccccc34)cccc12: > 2 µM
- C/C(O)=C(\C#N)C(=O)Nc1cc(Br)ccc1Br: > 16 µM
- CC(=O)c1c(C)c2cnc(Nc3ccc(N4CCNCC4)cn3)nc2n(C2CCCC2)c1=O [PALBOCICLIB]: > 4 µM
- CO[C@@]12[C@H](COC(N)=O)C3=C(C(=O)C(C)=C(N)C3=O)N1C[C@@H]1N[C@@H]12 [MITOMYCIN]: 0.344 µM
- Cc1[nH]c(/C=C2\C(=O)Nc3ccc(S(=O)(=O)Cc4c(Cl)cccc4Cl)cc32)c(C)c1C(=O)N1CCC[C@@H]1CN1CCCC1 [PHA-665752]: > 2 µM
- Cn1c(=O)n(-c2ccc(C(C)(C)C#N)cc2)c2c3cc(-c4cnc5ccccc5c4)ccc3ncc21 [DACTOLISIB]: 0.108 µM
- Cc1nc(Nc2ncc(C(=O)Nc3c(C)cccc3Cl)s2)cc(N2CCN(CCO)CC2)n1 [DASATINIB]: > 1.28 µM

Given item "NC(=O)c1ncn([C@@H]2O[C@H](COP(=O)(O)O)[C@@H](O)[C@H]2O)c1N" , the value recorded as its IC50 is 425 µM

Values from ChEMBL document CHEMBL1201861
